Value source: paper PMC7486940

# method_description: in vivo
# test_parameters: female, C57BL/6J, mouse, ip, 50 mg/kg, Tmax in plasma, Mouse 1

compound | Tmax / min
CCO[C@@H]1OC(=O)C[C@@H]1NC(=O)[C@@H]1CCCN1C(=O)[C@@H](NC(=O)c1ccc(N)c(Cl)c1)C(C)(C)C [VX-765] | 30

----------
# method_description: in vivo
# test_parameters: female, C57BL/6J, mouse, ip, 50 mg/kg, Tmax in CSF, Mouse 2

chem_smiles | Tmax / min
CCO[C@@H]1OC(=O)C[C@@H]1NC(=O)[C@@H]1CCCN1C(=O)[C@@H](NC(=O)c1ccc(N)c(Cl)c1)C(C)(C)C | 30

----------
# method_description: in vivo
# test_parameters: female, C57BL/6J, mouse, ip, 50 mg/kg, Half-life (t1/2) in plasma, Mean

chem_smiles | unit | half-life
CCO[C@@H]1OC(=O)C[C@@H]1NC(=O)[C@@H]1CCCN1C(=O)[C@@H](NC(=O)c1ccc(N)c(Cl)c1)C(C)(C)C | h | 3.2

----------
# method_description: in vivo
# test_parameters: female, C57BL/6J, mouse, ip, 50 mg/kg, Cmax in plasma, Mean

chem_smiles | Cmax (nM)
CCO[C@@H]1OC(=O)C[C@@H]1NC(=O)[C@@H]1CCCN1C(=O)[C@@H](NC(=O)c1ccc(N)c(Cl)c1)C(C)(C)C | 1590

----------
# method_description: in vivo
# test_parameters: female, C57BL/6J, mouse, ip, 50 mg/kg, Cmax in CSF, Mean
property: Cmax (µM)

chem_smiles | unit | obs_value
CCO[C@@H]1OC(=O)C[C@@H]1NC(=O)[C@@H]1CCCN1C(=O)[C@@H](NC(=O)c1ccc(N)c(Cl)c1)C(C)(C)C | µM | 0.69

----------
# method_description: in vivo
# test_parameters: female, C57BL/6J, mouse, ip, 50 mg/kg, plasma concentration, Mean
property: concentration at 3 h (nM)

compound | property | unit | obs_value
CCO[C@@H]1OC(=O)C[C@@H]1NC(=O)[C@@H]1CCCN1C(=O)[C@@H](NC(=O)c1ccc(N)c(Cl)c1)C(C)(C)C [VX-765] | concentration at 3 h | nM | 400

----------
# method_description: in vivo
# test_parameters: female, C57BL/6J, mouse, ip, 50 mg/kg, Tmax in CSF, Mean
property: Tmax (min)

compound | property | obs_value
CCO[C@@H]1OC(=O)C[C@@H]1NC(=O)[C@@H]1CCCN1C(=O)[C@@H](NC(=O)c1ccc(N)c(Cl)c1)C(C)(C)C [VX-765] | Tmax | 22.8

----------
# method_description: in vivo
# test_parameters: female, C57BL/6J, mouse, ip, 50 mg/kg, Tmax in brain, Mean

chem_smiles | Tmax
CCO[C@@H]1OC(=O)C[C@@H]1NC(=O)[C@@H]1CCCN1C(=O)[C@@H](NC(=O)c1ccc(N)c(Cl)c1)C(C)(C)C | 22.8 min
